# System: Gerbillinae
# Protocol notes: Compound was evaluated for gerbil colon contraction relative to PGF2-alpha
# Type: functional
List of Potency values.
Reply briefly: the number, and no unit.

Lab note: need Potency for `CCCCC[C@H](O)CC[C@@H]1[C@@H](C/C=C\CCCC(=O)OC)[C@@H](O)C[C@H]1O` on Gerbillinae, anyone have it? 0.11

For `CCCCC[C@H](O)CC[C@@]1(F)[C@H](O)C[C@H](O)[C@@H]1C/C=C\CCCC(=O)OC` then? 0.004

For `CCCCC[C@@H](O)CC[C@@]1(F)[C@H](O)C[C@H](O)[C@@H]1C/C=C\CCCC(=O)OC` then? 0.001

Next:
Lab note: need Potency for `CCCCC[C@H](O)/C=C/[C@@H]1[C@@H](C/C=C\CCCC(=O)O)[C@@H](O)C[C@H]1O` on Gerbillinae, anyone have it? 1

For `CCCCC[C@@H](O)/C=C/[C@@]1(F)[C@H](O)C[C@H](O)[C@@H]1C/C=C\CCCC(=O)OC` then? 0.011

For `CCCCC[C@H](O)/C=C/[C@@]1(F)[C@H](O)C[C@H](O)[C@@H]1C/C=C\CCCC(=O)OC` then? 0.001
